Exercise: for every item that follows, state its recorded Cmax.
test: Pharmacokinetics of JHG components in control rats after intragastric administration of JHGs (plasma, Orbitrap Fusion MS); assay type: in vivo, Sprague Dawley (SD) rats; details: male, Sprague Dawley, rat, plasma, po, 11.41 g/kg/day, intragastric JHGs, medium dose 11.41 g/kg/d, n=6 (2nd of 3 stacked values)
Report the value in ng/mL with no unit label.

Q) Would you mind telling me what Cmax value was observed for CC1=C2CC3C(CC(=O)C4CC(O)CCC43C)C2CCC12OC1CC(C)CNC1C2C (stereo not drawn) ?
A) 2.08

Q) Cmax lookup needed for CC1CCC2N(C1)CC1C3CC4C(CC(=O)C5CC(O)CCC54C)C3CCC1C2(C)O (stereo not drawn) , thanks.
A) 4.22

Q) Return reported Cmax; argument: C[C@@H]1O[C@@H](O[C@@H]2[C@@H](O)[C@H](OCCc3ccc(O)c(O)c3)O[C@H](COC(=O)/C=C/c3ccc(O)c(O)c3)[C@H]2O)[C@H](O)[C@H](O)[C@H]1O [Isoacteoside]
A) 9.31

Q) Would you mind telling me what Cmax value was observed for O=c1cc(-c2ccc(O)c(O)c2)oc2cc(O[C@@H]3O[C@H](CO)[C@@H](O)[C@H](O)[C@H]3O)cc(O)c12 [Cynaroside] ?
A) 57.7

Q) What value of Cmax has been reported for the following molecule? `COc1cc(O)c2c(c1)oc(=O)c1c3cc(O)c(O)cc3oc21`
A) 27.8

Q) Reported Cmax, molecule `COc1ccc(-c2cc(=O)c3c(OC)c(OC)c(OC)c(OC)c3o2)cc1OC` : ____
A) 3.02

Q) Query: Cmax; subject: `COc1ccc(C(C)=O)c(O)c1`
A) 11.7

Q) Which Cmax reading was recorded for the molecule CC1CCC2N(C1)CC1C3CC4C(CC(O)C5CC(O)CCC54C)C3CCC1C2(C)O (stereo not drawn) ?
A) 1.49

Q) Any idea what Cmax was measured for O=c1cc(-c2ccc(O)cc2)oc2cc(OC3OC(CO)C(O)C(O)C3O)cc(O)c12 (stereo not drawn) [Apigenin-7-glucoside] ?
A) 3.22

====

assay: Pharmacokinetics of JHG components in control rats after intragastric administration of JHGs (plasma, Orbitrap Fusion MS); assay type: in vivo, Sprague Dawley (SD) rats; details: male, Sprague Dawley, rat, plasma, po, 11.41 g/kg/day, JHGs medium dose 11.41 g/kg/d
Readout: AUC(0-inf) (ng·h/mL)
A number alone suffices; assume ng·h/mL.

Q) Request the reported AUC(0-inf) associated with CC1CCC2N(C1)CC1C3CC4C(CC(=O)C5CC(O)CCC54C)C3CCC1C2(C)O (stereo not shown) [Peiminine]
A) 43.9

Q) I have this compound here, CC1CCC2N(C1)CC1C3CC4C(CC(O)C5CC(O)CCC54C)C3CCC1C2(C)O (stereo not shown) [Peimine] , and I need its recorded AUC(0-inf).
A) 17.6

Q) Given COc1cc(O)c2c(c1)oc(=O)c1c3cc(O)c(O)cc3oc21 [Wedelolactone] , state its recorded AUC(0-inf).
A) 276

Q) Requested read-out: AUC(0-inf). Entry: O=c1cc(-c2ccc(O)c(O)c2)oc2cc(O[C@@H]3O[C@H](CO)[C@@H](O)[C@H](O)[C@H]3O)cc(O)c12 [Cynaroside]
A) 433

====

test: Pharmacokinetics of JHG components in pulmonary fibrosis (PF) model rats after intragastric administration of JHGs (plasma, Orbitrap Fusion MS); format: in vivo, Sprague Dawley (SD) rats; conditions: male, Sprague-Dawley, rat, plasma, po, 22.81 g/kg/day; PF model rats, JHGs high dose 22.81 g/kg/d; read-out: MRT(0-t)
Give measured MRT last for each item. Keep answers brief.
Your answer is read as h, so omit the unit and give the number.

Q) Please look up its MRT last: CC1=C2CC3C(CC(=O)C4CC(O)CCC43C)C2CCC12OC1CC(C)CNC1C2C (stereo not drawn) [Peimisine]
A) 9.84

Q) Look at this molecule and give its reported MRT last. COc1ccc(C(C)=O)c(O)c1 [Paeonol]
A) 9.41

Q) Would you kindly share the measured MRT last for COc1ccc(-c2cc(=O)c3c(OC)c(OC)c(OC)c(OC)c3o2)cc1OC [Nobiletin] ?
A) 6.66

====

Test: Pharmacokinetics of JHG components in control rats after intragastric administration of JHGs (plasma, Orbitrap Fusion MS)
Type: in vivo, Sprague Dawley (SD) rats
Details: JHGs medium dose 11.41 g/kg/d
Protocol: Healthy male Sprague Dawley (SD) rats of SPF grade (240 ± 20 g) were purchased from Sipeifu (Beijing, China) Biotechnology Co., Ltd. (Beijing, China), Certificate of Conformity No.: SCYK (Beijing, China) 2019-0015, Animal Quality Certificate No.: 110324220102348616. They were housed in the Animal Center of Henan University of Traditional Chinese Medicine, which passed the ethical audit, ethics number: DWLL202208003, breeding Co. 24 °C, relative humidity 50 ± 2%. […]
Readout: log10 of Clearances (log10 of the value in mL/min/kg)
Note the log scale: values are log10 of Clearances expressed in mL/min/kg.

Q) Which log10 of Clearances is listed for O=c1cc(-c2ccc(O)cc2)oc2cc(OC3OC(CO)C(O)C(O)C3O)cc(O)c12 (stereo not drawn) [Apigenin-7-glucoside] ?
A) 0.78

Q) What log10 of Clearances value was documented for this molecule, COc1cc(O)c2c(c1)oc(=O)c1c3cc(O)c(O)cc3oc21 [Wedelolactone] ?
A) -1.30

Q) Would you mind telling me what log10 of Clearances value was observed for CC1CCC2N(C1)CC1C3CC4C(CC(=O)C5CC(O)CCC54C)C3CCC1C2(C)O (stereo not drawn) [Peiminine] ?
A) 1.79

Q) // log10 of Clearances lookup, key: CC1=C2CC3C(CC(=O)C4CC(O)CCC43C)C2CCC12OC1CC(C)CNC1C2C (stereo not drawn) [Peimisine]
A) 0.50

Q) Reported log10 of Clearances for C[C@@H]1O[C@@H](O[C@@H]2[C@@H](O)[C@H](OCCc3ccc(O)c(O)c3)O[C@H](COC(=O)/C=C/c3ccc(O)c(O)c3)[C@H]2O)[C@H](O)[C@H](O)[C@H]1O [Isoacteoside] : what is it?
A) 1.20

Q) What does the data say about its log10 of Clearances? Entry: COc1ccc(C(C)=O)c(O)c1 [Paeonol]
A) 3.43

Q) Query: log10 of Clearances; subject: CC1CCC2N(C1)CC1C3CC4C(CC(O)C5CC(O)CCC54C)C3CCC1C2(C)O (stereo not drawn) [Peimine]
A) 1.88

Q) Fill in the blank: the reported log10 of Clearances of O=c1cc(-c2ccc(O)c(O)c2)oc2cc(O[C@@H]3O[C@H](CO)[C@@H](O)[C@H](O)[C@H]3O)cc(O)c12 [Cynaroside] is ____.
A) 0.11

Q) Suppose we examine the molecule COc1ccc(-c2cc(=O)c3c(OC)c(OC)c(OC)c(OC)c3o2)cc1OC [Nobiletin] ; what log10 of Clearances value has been reported?
A) 2.67

====

experiment: Pharmacokinetics of JHG components in pulmonary fibrosis (PF) model rats after intragastric administration of JHGs (plasma, Orbitrap Fusion MS); assay type: in vivo, Sprague Dawley (SD) rats; conditions: male, Sprague Dawley, rat, plasma, po, 11.41 g/kg/day; PF model rats, JHGs medium dose 11.41 g/kg/d; read-out: Tmax
Hi there, I'd appreciate the recorded Tmax for every entry that follows.
# unit: min | format: bare number

Q) What value of measured Tmax is listed for COc1ccc(-c2cc(=O)c3c(OC)c(OC)c(OC)c(OC)c3o2)cc1OC [Nobiletin] ?
A) 45

Q) Record request: Tmax value, item CC1=C2CC3C(CC(=O)C4CC(O)CCC43C)C2CCC12OC1CC(C)CNC1C2C (stereo not drawn) [Peimisine]
A) 220

Q) Looking for the measured Tmax of COc1ccc(C(C)=O)c(O)c1 [Paeonol] , can you help?
A) 45

====

For each entry below, report its Vss value.
experiment: Pharmacokinetics of JHG components in control rats after intragastric administration of JHGs (plasma, Orbitrap Fusion MS); assay type: in vivo, Sprague Dawley (SD) rats; conditions: JHGs low dose 5.70 g/kg/d
Report the value in L with no unit label.

Q) Reported Vss for C[C@@H]1O[C@@H](O[C@@H]2[C@@H](O)[C@H](OCCc3ccc(O)c(O)c3)O[C@H](COC(=O)/C=C/c3ccc(O)c(O)c3)[C@H]2O)[C@H](O)[C@H](O)[C@H]1O [Isoacteoside] : what is it?
A) 8.97

Q) Need Vss of CC1=C2CC3C(CC(=O)C4CC(O)CCC43C)C2CCC12OC1CC(C)CNC1C2C (stereo not drawn) , thanks.
A) 3.26

Q) Any idea what its Vss is? The compound is O=c1cc(-c2ccc(O)c(O)c2)oc2cc(O[C@@H]3O[C@H](CO)[C@@H](O)[C@H](O)[C@H]3O)cc(O)c12 [Cynaroside]
A) 0.6

Q) Which Vss is listed for CC1CCC2N(C1)CC1C3CC4C(CC(=O)C5CC(O)CCC54C)C3CCC1C2(C)O (stereo not drawn) ?
A) 28.03

Q) Item `COc1ccc(-c2cc(=O)c3c(OC)c(OC)c(OC)c(OC)c3o2)cc1OC` has what recorded Vss?
A) 287.56

Q) So what does the record say about Vss for `COc1cc(O)c2c(c1)oc(=O)c1c3cc(O)c(O)cc3oc21` ?
A) 0.04

Q) Vss for CC1CCC2N(C1)CC1C3CC4C(CC(O)C5CC(O)CCC54C)C3CCC1C2(C)O (stereo not drawn) ?
A) 131.39

Q) Requested read-out: Vss. Entry: `COc1ccc(C(C)=O)c(O)c1`
A) 1528.44

Q) Given O=c1cc(-c2ccc(O)cc2)oc2cc(OC3OC(CO)C(O)C(O)C3O)cc(O)c12 (stereo not drawn) [Apigenin-7-glucoside] , state its recorded Vss.
A) 3.94

meta.source: paper PMC10534582
